target or test system: Tubulin
experimental details: Tubulin interaction assessed as inhibition of cold-induced microtubule disassembly
reported metric: IC50 (µM)
Hi! Could you send only the number? It should be in µM, unit omitted.

Looking up CC(=O)O[C@@]12COC1C[C@H](O)[C@@]1(C)C(=O)[C@H](O)C3=C(C)[C@@H](OC(=O)[C@H](O)[C@@H](NC(=O)N[C@H](C(=O)OCc4ccccc4)C(C)C)c4ccccc4)C[C@@](O)([C@@H](OCc4ccccc4)C21)C3(C)C (some centres undefined) , I found its IC50 recorded as 0.8

Looking up CC(=O)O[C@@]12COC1C[C@H](O)[C@@]1(C)C(=O)[C@H](O)C3=C(C)[C@@H](OC(=O)C(O)[C@@H](NC(=O)N[C@H](C(=O)N4CCC[C@H]4C(=O)NCC(=O)NCC(=O)OCc4ccccc4)C(C)C)c4ccccc4)C[C@@](O)([C@@H](OC(=O)c4cccc([N+](=O)[O-])c4)C21)C3(C)C (some centres undefined) , I found its IC50 recorded as 0.5

Looking up COC(=O)[C@@H](CCSC)NC(=O)[C@H](Cc1ccccc1)NC(=O)[C@@H](NC(=O)N[C@@H](c1ccccc1)[C@@H](O)C(=O)O[C@H]1C[C@@]2(O)[C@@H](OCc3ccccc3)C3[C@]4(OC(C)=O)COC4C[C@H](O)[C@@]3(C)C(=O)[C@H](O)C(=C1C)C2(C)C)C(C)C (some centres undefined) , I found its IC50 recorded as 2.6

Looking up CC(=O)O[C@@]12COC1C[C@H](O)[C@@]1(C)C(=O)[C@H](O)C3=C(C)[C@@H](OC(=O)[C@H](O)[C@@H](NC(=O)NCC(=O)N[C@@H](CO)C(=O)N[C@@H](Cc4ccc(O)cc4)C(=O)O)c4ccccc4)C[C@@](O)([C@@H](OCc4ccccc4)C21)C3(C)C (some centres undefined) , I found its IC50 recorded as 1
